All figures here come from ChEMBL document CHEMBL3507680.

- RUN DESCRIPTION: Human HepG2 cell viability assay in 384 well format
- Assay type: toxicity, cell-based
- Set-up: dose 125 nL, time 70.5 hour; concentration not given beside the values
- CONDITION SUMMARY: HepG2 cells, read-out: Inhibition
Consider the following compounds; for each one, report its cytotoxicity at 70.5 h.
Form entry: value (%) — number only.

So, Cc1noc([C@@]23CCO[C@@H]2CCN(C(=O)c2cc(C)on2)C3)n1 ? Its cytotoxicity at 70.5 h was -3.23

CN(C)[C@@H]1CN(C(=O)c2ccc(C#N)cc2)[C@@H]2CCCO[C@H]12 yielded cytotoxicity at 70.5 h of 3.23

Form: compound = Cc1nnc(C[C@@H]2COC[C@H]3CN(C(=O)C4=CCCC4)C[C@@H]23)o1 ; cytotoxicity at 70.5 h = -13.7

// sample Cc1ccc2c(c1)C1(CC2)CCN(c2nncs2)CC1 , its cytotoxicity at 70.5 h was -4.57

# compound CCC1CN(C(=O)c2[nH]nc(C)c2Br)CCO1 (stereo not drawn) ; its cytotoxicity at 70.5 h = -6.3

The compound listed as CC(C)n1cccc1C(=O)N1CC[C@@H](NC(=O)c2ccccn2)[C@H](O)C1 has a reported cytotoxicity at 70.5 h of -14.5

Documented cytotoxicity at 70.5 h of Cc1nccn1CCC1CCN(c2ncccn2)CC1 : -6.44

The recorded cytotoxicity at 70.5 h for entry Cn1cncc1CN1CC[C@](C)(O)[C@@H](Oc2cccc(F)c2)C1 equals 13.9

Record CN(Cc1ccco1)C(=O)Nc1cc(C(F)(F)F)c[nH]c1=O . Reported cytotoxicity at 70.5 h: -14.9

Kindly note the recorded cytotoxicity at 70.5 h for COCC(C)NC(=O)Nc1cc(-c2ccccc2C)nn1CCO (stereo not drawn) , which is -4.5

response.value for Cc1ncccc1Oc1ncnc(N2CCCC(O)(CO)CC2)c1C (stereo not drawn) (field: cytotoxicity at 70.5 h) = -16.4

cytotoxicity at 70.5 h recorded for this compound, CNc1cc(C2CCCN(S(=O)(=O)c3cn[nH]c3)C2)ccn1 (stereo not drawn) , is -16.1

Briefly, cytotoxicity at 70.5 h measured for Cc1cc(NCCO)nc(N2CCCC2)c1C#N : 2.8

Given item O=C1CCC2(CCNCC2)CN1Cc1nnc2ccccn12 , the value recorded as its cytotoxicity at 70.5 h is -5.01

Please fill in: cytotoxicity at 70.5 h reported for O=C(Nc1ccccc1F)C1=NOC2(CCNCC2)C1 = -2.62

The compound Cc1nc(CN2C(=O)COC3(CCN(Cc4nccs4)CC3)C2C)cs1 (stereo not drawn) showed cytotoxicity at 70.5 h equal to -6.92

Lab note: measured cytotoxicity at 70.5 h of CN(C)S(=O)(=O)N1CCC(c2ccnc(Nc3ccccn3)n2)C1 (stereo not drawn) was -0.703

Per the record, COCc1nc(C(=O)NS(=O)(=O)c2cc(C)ccc2C)cs1 has cytotoxicity at 70.5 h of 3.09
